Provide the reported GI50 of each item.
System: HOP-62
procedureDetails: NCI tumour cell line growth inhibition, 48 h
Active and inactive are the calls of the source. Rule as the data show it: active = GI50 up to about 1.1 µM and inactive = higher.

compound=NC(=O)NNc1nc2ccccc2c(=O)n1NC(=O)C(=O)Nc1ccc(Cl)cc1Cl assayvalue="> 100 µM (inactive)"

Quick one: give me GI50 for each item below, same order please.
1. Nc1nc(O)c([I+]c2ccccc2)c(=O)[nH]1
2. CC(=N\N)/C(C)=N/N=C(C)/C(C)=N/N=C(C)/C(C)=N/N
3. CCC(C#N)N(Cc1ccc(CN(C(=O)c2ccccc2)C(C#N)CC)cc1)C(=O)c1ccccc1 (stereo not given)
4. C/C(=N\NC(=O)c1cccnc1)c1cccc(/C(C)=N/NC(=O)c2cccnc2)n1.CC(=O)[O-].CC(=O)[O-].[Zn+2]

**Result**
> 100 µM (inactive)
> 100 µM (inactive)
20.9 µM (inactive)
1.45 µM (inactive)

====

System: NCI/ADR-RES
procedureDetails: NCI tumour cell line growth inhibition, 48 h
Active and inactive are the calls of the source. No stated cut-off is given here; in the data, active = GI50 up to about 1.1 µM and inactive = higher.
Please state which outcome applies, choosing from active, inactive

compound="COc1cc2c[n+](C)c3c4cc5c(cc4ccc3c2cc1OC)OCO5 [NITIDINE CHLORIDE]" classification=inactive

**Query** Call for entry NC(=O)NNc1nc2ccccc2c(=O)n1NC(=O)C(=O)Nc1ccc(Cl)cc1Cl :
**Result** inactive

====

Provide the reported GI50 of each item.
Test system: OVCAR-3
procedureDetails: NCI tumour cell line growth inhibition, 48 h
Activity calls are given as the source filed them. Cut-off read from the data, not from the text of the source: active = GI50 up to about 1.1 µM and inactive = higher.

Recorded GI50, per entry:
compound=CC(=N\N)/C(C)=N/N=C(C)/C(C)=N/N=C(C)/C(C)=N/N recordedmetric=GI50 assayvalue="> 100 µM (inactive)"
compound=CC(C)C1=Cc2ccc3c(c2C(=O)C1=O)CCCC3(C)C recordedmetric=GI50 assayvalue="2.58 µM (inactive)"
compound="C=CCNC1=C2C[C@@H](C)C[C@@H](OC)C(OC(=O)CCCN(C)C)[C@H](C)/C=C(\\C)[C@@H](OC(N)=O)[C@H](OC)/C=C\\C=C(/C)C(=O)NC(=CC1=O)C2=O (stereo not given in full)" recordedmetric=GI50 assayvalue="3.3 µM (inactive)"

Quick one: give me GI50 for each item below, same order please.
1. C[C@H](CN1CC(=O)NC(=O)C1)N1CC(=O)NC(=O)C1
2. CC1=C(C(=O)CC(=O)C(=O)Nc2cccc(C)c2C)Sc2ccccc2N1
3. O=C1c2ccccc2C(=O)N1CC(CN1C(=O)c2ccccc2C1=O)(C(=O)OCc1ccccc1)C(=O)OCc1ccccc1

**Result**
1. > 100 µM (inactive)
2. > 100 µM (inactive)
3. > 100 µM (inactive)

Quick one: give me GI50 for each item below, same order please.
1. S=C(Nc1cccc(Cl)c1)Nc1ccccn1
2. Cc1nc2c(C)ccc([N+](=O)[O-])c2c(NCCCN(C)C)c1C
3. N#CC(Cc1ccccc1)N(CCC1=CCCCC1)C(c1ccccc1)c1ccccc1 (stereo not given)
4. CSc1nc(Cl)c(Br)c(Nc2cnc(O)nc2O)n1

**Result**
1. > 100 µM (inactive)
2. 47.9 µM (inactive)
3. > 100 µM (inactive)
4. 14.6 µM (inactive)

====

Data export: GI50 values recorded with HCT-15.

compound=N#CC(C#N)=Cc1ccc(CP(=O)(O)O)cc1 assayvalue="> 100 µM"

Quick one: give me GI50 for each item below, same order please.
1. CC(=O)C(CN(CC(C)C)CC(C)C)C(c1ccccc1)c1c(O)c2ccccc2oc1=O (stereo not drawn)
2. CCSC1(SCC)CC(Cc2ccc(OC)cc2)N(/C=N/C(C)(C)C)C1 (stereo not drawn)
3. CSc1nc(Cl)c(Br)c(Nc2cnc(O)nc2O)n1
4. Cc1c(C(=O)O)n2c(C)nnc2c2ccccc12
5. COc1ccc2c(c1)CCCc1cn[nH]c1-2

**Result**
1: > 100 µM; 2: 25.8 µM; 3: 7.41 µM; 4: > 100 µM; 5: > 100 µM

Quick one: give me GI50 for each item below, same order please.
1. CC(C)C1CCC(=O)CC1CCCCC1CC(=O)CC1O[Si](C)(C)C(C)(C)C (stereo not drawn)
2. O=C(CC(C(=O)c1ccsc1)c1ccccc1)c1cccs1 (stereo not drawn)
3. CC1[C@@]2(CCC(C)(C)O2)O[C@@H]2C=C3C4CCC5Cc6nc7c(nc6C[C@@]5(C)C4C[C@H](O)[C@@]3(C)[C@]12O)CC1CCC2C3=C[C@H]4O[C@@]5(O[C@@](C)(CO)C[C@@H]5O)C(C)[C@@]4(O)[C@]3(C)[C@@H](O)CC2[C@]1(C)C7 (stereo partly drawn)

**Result**
["3.44 µM", "56.9 µM", "0.169 µM"]

Quick one: give me GI50 for each item below, same order please.
1. CC1=C(C(=O)CC(=O)C(=O)Nc2cccc(C)c2C)Sc2ccccc2N1
2. O=C(c1ccccc1)c1ccc2c(c1)NC(=O)c1ccccc1SSc1ccccc1C(=O)N2
3. C/C=C1/C=CC2c3[nH]c4ccccc4c3CCN2C1 (stereo not drawn)
4. COc1ccc(OC)c(NC(=O)C2=C(C)NC(C)=C(C(=O)Nc3cc(OC)ccc3OC)C2c2ccccc2)c1
5. CCOC(=O)C1(C(=O)OCC)CSC1
6. Cc1ccc(NC(=O)C(=O)C2C(=O)N(c3ccccc3)N=C2N)cc1C (stereo not drawn)

**Result**
1: > 100 µM; 2: > 100 µM; 3: > 400 µM; 4: > 100 µM; 5: > 100 µM; 6: > 100 µM

====

Test system: SNB-78
procedureDetails: NCI tumour cell line growth inhibition, 48 h
Calls of active or inactive are those of the source. No stated cut-off is given here; in the data, active = GI50 up to about 1.1 µM and inactive = higher.
recordedMetric: GI50

Recorded GI50, per entry:
compound=CN(C)c1ccc(-c2cc(O)c3ccccc3n2)cc1 targetofassay=SNB-78 assayvalue="> 100 µM (inactive)"
compound="O=C1c2ccccc2C2(O)Nc3c(ccc4ccccc34)C12O (stereo unspecified)" targetofassay=SNB-78 assayvalue="> 100 µM (inactive)"
compound=FC(F)(F)C1=NC(=NNc2nnc(-c3ccccc3)c(-c3ccccc3)n2)N=C(C(F)(F)F)C1 targetofassay=SNB-78 assayvalue="> 67.9 µM (inactive)"
compound=COc1ccc(OC)c(NC(=O)C2=C(C)NC(C)=C(C(=O)Nc3cc(OC)ccc3OC)C2c2ccccc2)c1 targetofassay=SNB-78 assayvalue="> 100 µM (inactive)"
compound=CC(=O)/C(=C\c1ccccc1)C(=O)Nc1ccccc1 targetofassay=SNB-78 assayvalue="> 100 µM (inactive)"

Quick one: give me GI50 for each item below, same order please.
1. CN1CCc2c1nc(-c1cccnc1)c1c2N(C)CC1
2. Cc1c2ccncc2c(C)c2c1[nH]c1ccc(OCC(F)(F)F)cc12
3. CC[P+]1(c2ccccc2)CCCCC1
4. CCCCCCCCCCCCCCCCOC(=O)C(C(=O)OCCCCCCCCCCCCCCCC)[N+](C)(C)CCOC(C)=O
5. Cn1cnc([N+](=O)[O-])c1Sc1ccccn1
6. Oc1cc(O)c(Oc2cccc(O)c2O)c(O)c1

**Result**
> 100 µM (inactive)
2.92 µM (inactive)
> 100 µM (inactive)
19.9 µM (inactive)
> 100 µM (inactive)
> 100 µM (inactive)

====

Provide the reported GI50 of each item.
System: MOLT-4
procedureDetails: NCI tumour cell line growth inhibition, 48 h
The source made the active and inactive calls. Cut-off read from the data, not from the text of the source: active = GI50 up to about 1.1 µM and inactive = higher.

Recorded GI50, per entry:
compound=Cc1c2c(nc3ccccc13)C(=O)c1cccnc1C2=O targetofassay=MOLT-4 assayvalue="9.71 µM (inactive)"
compound=CC(C)(C)c1cc(C(C)(C)C)c2sc(=O)oc2c1O targetofassay=MOLT-4 assayvalue="8.26 µM (inactive)"
compound=Cc1cccc2cc3c(ccc4ccccc43)c[n+]12 targetofassay=MOLT-4 assayvalue="4.89 µM (inactive)"
compound=CCCCCCOc1ccc(C(=O)NOCc2ccccc2)cc1 targetofassay=MOLT-4 assayvalue="79.6 µM (inactive)"
compound="CC1(C)CCCCCCCCCC2CC2CCC(C)(C)C1=O (configuration not stated)" targetofassay=MOLT-4 assayvalue="28.5 µM (inactive)"

Quick one: give me GI50 for each item below, same order please.
1. OCC1OC(c2scc3c(=S)[nH]cnc23)C(O)C1O (configuration not stated)
2. N/C(=N\O)N/N=C/c1cc(I)cc(I)c1O
3. COC(=O)NCCc1n[nH]c2c1C(=O)C=C(N1CCOCC1)C2=O
4. Cn1c(=O)c2nc[nH]c2n(C)c1=O [THEOPHYLLINE]
5. CC(C)=CCC/C(C)=C/CC/C(C)=C/CC/C=C(\C)CC/C=C(\C)CCC1SC1(C)C (configuration not stated)
6. CN1CCc2c1nc(-c1cccnc1)c1c2N(C)CC1
7. CC[C@H](C)C1=C(O)[N@+]2([O-])Oc3ccc(-c4c(O)c(O)c(-c5ccc(OC(C)=O)cc5)c(OC(C)=O)c4OC(C)=O)cc3O[C@]2([C@@H](C)CC)C(=O)N1O
8. CC1CC(=O)N(N(C)C)C2(C#N)C(=O)N=C(N)C12C#N (configuration not stated)

**Result**
1. 4.25 µM (inactive)
2. > 100 µM (inactive)
3. > 100 µM (inactive)
4. > 100 µM (inactive)
5. > 100 µM (inactive)
6. > 100 µM (inactive)
7. 12.7 µM (inactive)
8. 36.7 µM (inactive)

Quick one: give me GI50 for each item below, same order please.
1. CC1=C(C(=O)CC(=O)C(=O)Nc2cccc(C)c2C)Sc2ccccc2N1
2. CC1=C(C(=O)NNS(=O)(=O)c2ccc(C)cc2)CC(C(=O)NNS(=O)(=O)c2ccc(C)cc2)=C(C)N1
3. ICC1CCCO1 (configuration not stated)
4. CCCCCCCCP(=O)(O)OP(=O)(O)OCC1OC(n2ccc(N)nc2=O)C(O)C1O (configuration not stated)

**Result**
> 100 µM (inactive)
46.8 µM (inactive)
> 100 µM (inactive)
> 100 µM (inactive)

Quick one: give me GI50 for each item below, same order please.
1. Nc1nc(Cl)cc(Nc2cc(Cl)cc(Cl)c2)n1
2. COc1ccc2c(c1)CCC1=CC3(CCC12C)SCCS3 (configuration not stated)
3. OC(c1ccco1)C(F)(F)c1nc2ccccc2o1 (configuration not stated)
4. Cn1c(-c2ccccc2)cc(-c2ccc3c(c2)OCO3)c1-c1ccsc1

**Result**
["22.3 µM (inactive)", "3.8 µM (inactive)", "> 100 µM (inactive)", "> 100 µM (inactive)"]

**Query** Would you mind telling me what GI50 value was observed for CC(=O)NC1C(OCc2ccccc2)OC(CO)C(O)C1OC(C)C(=O)NC(C)C(=O)NC(CCC(=O)NCCCNc1c2ccccc2nc2cccc([N+](=O)[O-])c12)C(N)=O (configuration not stated) ?
**Result** 3.27 µM (inactive)
